- Test system: LOX IMVI
- protocol: NCI tumour cell line growth inhibition, 48 h
Calls of active or inactive are those of the source. Rule as the data show it: active = GI50 up to about 1.1 µM and inactive = higher.
Outcome (select one): Yes (active), No (inactive)

Would you please look over these solved cases?
CC1(C)OCC(C(O)C2OC(C)(C)OC2/C=N\O)O1 (stereo not given): No
O=C(CCc1ccccc1)ON1C(=S)C(c2ccccc2)(c2ccccc2)N=C1Sc1ccccc1: No
Nc1nc(N)nc(-c2ccccc2NS(=O)(=O)c2ccc([N+](=O)[O-])cc2)n1: No
O=S(=O)(CC(O)C(Cl)(Cl)Cl)NNc1ccccc1 (stereo not given): No
Cc1ccc(S(=O)(=O)n2cc(/C=C/C#N)c(/C=C/C#N)c2)cc1: No
COc1ccc2c(=O)c(O)c(-c3ccc(OC)c(OC)c3)oc2c1: No
COC(=O)C1SC(N(C)c2ccccc2)=NC12c1ccccc1Nc1ccccc12 (stereo not given): No
Cc1nc(=O)[nH]c2[nH][nH]c(=O)c12: No

### Prompt Lab log entry: CC1(C)C2C=CC1C(=O)CC2 (stereo not given) — outcome as called in the assay?
### Response No

### Prompt Lab log entry: `COc1cc(CNc2ccc(SC)cc2)cc(OC)c1OC` — outcome as called in the assay?
### Response No

### Prompt Lab log entry: N#CC(/C(=N/NC(=O)C(=O)NN)C(=O)Nc1nc([N+](=O)[O-])cs1)c1ccc(Cl)cc1 (stereo not given) — outcome as called in the assay?
### Response No

### Prompt Lab log entry: `CCOc1cc(/C=N/c2nc3cc4sc(/N=C/c5ccc(O)c(OCC)c5)nc4cc3s2)ccc1O` — outcome as called in the assay?
### Response No

### Prompt Lab log entry: `CCC1(CC)N=C(C(F)(F)F)c2cc(C(=O)C(F)(F)F)c3ccccc3c2N1` — outcome as called in the assay?
### Response No

### Prompt Lab log entry: `O=c1sc2c(s1)SSSSS2` — outcome as called in the assay?
### Response No

====

- Tested on: KM12
- protocol: NCI tumour cell line growth inhibition, 48 h
Active and inactive are the calls of the source. No stated cut-off is given here; in the data, active = GI50 up to about 1.1 µM and inactive = higher.
# maps each entry to its GI50

Guide cases for GI50, answers given:
O=C(NCCCN1CCN(CCCNC(=O)Nc2cccc3ccccc23)CC1)Nc1cccc2ccccc12: 19.3 µM (inactive)
O=C(O)c1ccccc1-c1ccccc1C(=O)Nc1ccc2c(c1)nc(O)c1ccccc12: > 100 µM (inactive)
C=CCOC(=O)Cn1cc(C)c(=O)[nH]c1=O: > 100 µM (inactive)

Now consider a different compound.
### Prompt Please give the measured GI50 for this compound: OCC1=CC(NC2CC(CO)C(O)C(O)C2O)C(O)C(O)C1O (centres undefined)
### Response > 100 µM (inactive)

====

- Tested on: Malme-3M
- protocol: NCI tumour cell line growth inhibition, 48 h
Activity calls are given as the source filed them. Rule as the data show it: active = GI50 up to about 1.1 µM and inactive = higher.
# maps each entry to its GI50

### Prompt Please give the measured GI50 for this compound: c1ccc(C2=Nc3nc4ccccc4n3C(c3ccccc3)C2)cc1 (centres undefined)
### Response > 100 µM (inactive)

### Prompt Please give the measured GI50 for this compound: CC1CCC(C(C)C)C(O[C@@H]2OC(=O)C[C@@H]2Sc2ccccc2)C1 (some centres undefined)
### Response 18.5 µM (inactive)

### Prompt Please give the measured GI50 for this compound: `CCn1c2ccccc2c2nnc(NCCCO)nc21`
### Response > 100 µM (inactive)

### Prompt Please give the measured GI50 for this compound: `CCCCCCCCSC(SCCCCCCCC)=C1C(=O)N(c2ccccc2)N=C1C`
### Response 53.6 µM (inactive)
